# experimentalProtocol: Plasma pharmacokinetics of 2,4-DNP, i.v. and oral
# Type: in vivo, Sprague-Dawley male rats
# protocolConditions: male, Sprague-Dawley, rat, plasma, po, 5 mg/kg, 2,4-DNP single oral dose 5 mg/kg, n = 4; read-out: Cmax
reportedEndpoint: Cmax (µg/mL)
Please reply with the bare figure in µg/mL and do not write the unit itself.

# input Could you share which Cmax value was measured for O=[N+]([O-])c1ccc(O)c([N+](=O)[O-])c1 [2,4-DNP, 2,4-dinitrophenol] ?
# output 50.1

====

# experimentalProtocol: Plasma pharmacokinetics of II-38 and 2,4-DNP released from II-38
# Assay type: in vivo, Sprague-Dawley male rats
# protocolConditions: male, Sprague-Dawley, rat, in vivo, po, 5 mg/kg, oral II-38 eq. to 5 mg/kg of 2,4-DNP
reportedEndpoint: Tmax (h)
Please reply with the bare figure in h and do not write the unit itself.

# input Could you share which Tmax value was measured for O=C(Oc1ccc([N+](=O)[O-])cc1[N+](=O)[O-])N1CCOCC1 [II-38] ?
# output 2.19

====

# experimentalProtocol: Plasma pharmacokinetics of II-38 and 2,4-DNP released from II-38
# Format: in vivo, Sprague-Dawley male rats
# protocolConditions: male, Sprague-Dawley, rat, in vivo, po, 50 mg/kg, oral II-38 eq. 50 mg/kg of 2,4-DNP; read-out: t1/2 of II-38
reportedEndpoint: half-life (h)
Please reply with the bare figure in h and do not write the unit itself.

# input Could you share which half-life value was measured for O=C(Oc1ccc([N+](=O)[O-])cc1[N+](=O)[O-])N1CCOCC1 ?
# output 17.7

====

# experimentalProtocol: Plasma pharmacokinetics of 2,4-DNP, i.v. and oral
# Assay type: in vivo, Sprague-Dawley male rats
# protocolConditions: male, Sprague-Dawley, rat, plasma, iv; 2,4-DNP single i.v. dose 1 mg/kg, n = 3; read-out: Vss
reportedEndpoint: Vd (L/kg)
Please reply with the bare figure in L/kg and do not write the unit itself.

# input Could you share which Vd value was measured for O=[N+]([O-])c1ccc(O)c([N+](=O)[O-])c1 ?
# output 0.161

====

# experimentalProtocol: Plasma pharmacokinetics of II-38 and 2,4-DNP released from II-38
# Format: in vivo, Sprague-Dawley male rats
# protocolConditions: male, Sprague-Dawley, rat, in vivo, po, 25 mg/kg, oral II-38 eq. to 25 mg/kg of 2,4-DNP, PEG-400
# Description: The oral bioavailability and plasma pharmacokinetic (PK) properties of II-38 prodrug and 2,4-DNP-released from II-38 prodrug was investigated in Sprague-Dawley (S-D) male rats after a single i.v. injection of II-38 at 1.6 mg/kg (eq. to 1 mg/kg 2,4-DNP) and an oral dose eq. to 5, 25 and 50 mg/kg of 2,4-DNP. Blood samples were taken up to […]. […]
reportedEndpoint: Tmax (h)
Please reply with the bare figure in h and do not write the unit itself.

# input Could you share which Tmax value was measured for O=C(Oc1ccc([N+](=O)[O-])cc1[N+](=O)[O-])N1CCOCC1 ?
# output 1.5

====

# experimentalProtocol: Plasma pharmacokinetics of II-38 and 2,4-DNP released from II-38
# Type: in vivo, Sprague-Dawley male rats
# protocolConditions: male, Sprague-Dawley, rat, in vivo, po, 50 mg/kg, oral II-38 eq. 50 mg/kg of 2,4-DNP; read-out: % F of II-38
reportedEndpoint: bioavailability (%)
Please reply with the bare figure in % and do not write the unit itself.

# input Could you share which bioavailability value was measured for O=C(Oc1ccc([N+](=O)[O-])cc1[N+](=O)[O-])N1CCOCC1 ?
# output 24.5

This collection of values is drawn from patent US11406642B2.
